This collection of values is drawn from patent US20130053541A1.

- testTarget: native human ESRRG protein (Homo sapiens, UniProt P62508)
- Sequence (P62508 1-458): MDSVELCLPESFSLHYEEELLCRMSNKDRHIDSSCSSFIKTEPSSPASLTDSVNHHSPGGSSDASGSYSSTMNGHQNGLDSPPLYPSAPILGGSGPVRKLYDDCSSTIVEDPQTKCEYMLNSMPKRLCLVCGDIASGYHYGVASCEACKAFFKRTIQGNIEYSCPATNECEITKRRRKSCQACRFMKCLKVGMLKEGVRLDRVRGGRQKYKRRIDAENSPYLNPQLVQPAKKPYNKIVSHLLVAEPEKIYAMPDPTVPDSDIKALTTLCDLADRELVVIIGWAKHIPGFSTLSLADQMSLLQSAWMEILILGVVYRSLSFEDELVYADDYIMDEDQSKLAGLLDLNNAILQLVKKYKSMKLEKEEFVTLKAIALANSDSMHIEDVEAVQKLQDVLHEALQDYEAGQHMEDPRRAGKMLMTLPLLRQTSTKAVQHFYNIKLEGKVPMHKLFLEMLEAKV
- protocolNotes: peptide microarray screening for ESRRG binding (Iteration 1 and 2)
- settings: Iteration 1 primary screen
Listed substances paired with reported log2 (Sample B/Sample A)
measuredAttribute: log2 (Sample B/Sample A)

>>> print(df.to_string())
                               substance  endpointvalue
 0  Ac-NSLLKHLL-NH2 (C-terminus assumed)           7.65
 1  Ac-NSLRKHLL-NH2 (C-terminus assumed)           5.36
 2  Ac-NIKVNANN-NH2 (C-terminus assumed)           7.62
 3  Ac-AIRGALMG-NH2 (C-terminus assumed)           5.48
 4  Ac-NSLKKHLL-NH2 (C-terminus assumed)          10.84
 5  Ac-ANNSRLLH-NH2 (C-terminus assumed)           5.54
 6  Ac-IKQNHNNS-NH2 (C-terminus assumed)           9.63
 7  Ac-AIRLHLMG-NH2 (C-terminus assumed)           5.07
 8  Ac-LLHKSKSQ-NH2 (C-terminus assumed)           4.99
 9  Ac-LLHSSKSQ-NH2 (C-terminus assumed)           5.40
10  Ac-IKQDHNNS-NH2 (C-terminus assumed)           9.45
11  Ac-AANMFLLL-NH2 (C-terminus assumed)           5.37
